MEASUREMENT PROTOCOL: Permeability of the compound at […] after 3 hrs by artificial membrane permeability assay
Assay type: ADME
APPLIED CONDITIONS: PAMPA; read-out: permeability
Each entry below lists one item and its recorded Papp at 3 h value.
ASSAY METRIC: Papp at 3 h

                                   compound  recorded_result
0  O=C1CCCC(C(=O)NC2=NN(c3ccc(Cl)c(Cl)c3)CC2)N1 (stereo not drawn)    25 ×10⁻⁶ cm/s
1   CC(=O)NC1=NN(c2ccc(Cl)c(Cl)c2)C[C@@H]1C    42 ×10⁻⁶ cm/s
2   N#CCC(=O)Nc1nc(-c2ccc(Cl)c(Cl)c2)c[nH]1    31 ×10⁻⁶ cm/s

====

MEASUREMENT PROTOCOL: Kinetic solubility of the compound at pH 7.4 after 1 hr by CLND-based assay
Assay type: physicochemical
APPLIED CONDITIONS: buffer, read-out: Kinetic_solubility
ASSAY METRIC: solubility kinetic at 1 h (µM)

                                    molecule               assay_metric  modifier  recorded_result
 0  O=C1NC(=O)C(c2cn(-c3ccccc3)nc2-c2ccc(F)cc2)N1 (configuration not stated)  solubility kinetic at 1 h         >              395
 1  CC(=O)NC1=NN(c2ccc(Cl)c(Cl)c2)CC1C (racemic)  solubility kinetic at 1 h         =               49
 2  O=C(Nc1nc(-c2ccc(Cl)c(Cl)c2)cs1)c1cccnc1  solubility kinetic at 1 h         =               20
 3  O=C1CCCC(C(=O)NC2=NN(c3ccc(Cl)c(Cl)c3)CC2)N1 (configuration not stated)  solubility kinetic at 1 h         =              416
 4    CC(=O)NC1=NN(c2ccc(Cl)c(Cl)c2)C[C@H]1C  solubility kinetic at 1 h         =               36
 5   CC(=O)NC1=NN(c2ccc(Cl)c(Cl)c2)C[C@@H]1C  solubility kinetic at 1 h         =               32
 6  CC(=O)NC1=NN(c2ccc(Cl)c(Cl)c2)[C@@H](C)C1  solubility kinetic at 1 h         =              125
 7  O=C(NC1=NN(c2ccc(Cl)c(Cl)c2)CC1)c1ccncc1  solubility kinetic at 1 h         =                9
 8  Cn1ncc([N+](=O)[O-])c1C(=O)Nc1nc(-c2ccc(Cl)c(Cl)c2)cs1  solubility kinetic at 1 h         <                1
 9  O=C(NC1=NN(c2ccc(Cl)c(Cl)c2)CC1)c1cccnc1  solubility kinetic at 1 h         =                4
10     N#CCC(=O)Nc1cccc(-c2ccc(Cl)c(Cl)c2)n1  solubility kinetic at 1 h         =                1
11  O=C(NC1=NN(c2ccc(Cl)c(Cl)c2)CC1)c1cccnc1F  solubility kinetic at 1 h         =               13
12  Cc1ncncc1C(=O)NC1=NN(c2ccc(Cl)c(Cl)c2)CC1  solubility kinetic at 1 h         =               12
13  O=C(NC1=NN(c2ccc(Cl)c(Cl)c2)CC1CCO)c1ccncc1 (racemic)  solubility kinetic at 1 h         =              167
14      N#CCC(=O)Nc1ccn(-c2ccc(Cl)c(Cl)c2)n1  solubility kinetic at 1 h         =               34
15  CC(=O)N[C@@H](C)C(=O)NC1=NN(c2ccc(Cl)c(Cl)c2)CC1  solubility kinetic at 1 h         =               58
16  O=C(NC1=NN(c2ccc(Cl)c(Cl)c2)CC1)c1ccccn1  solubility kinetic at 1 h         =               11
17      N#CCC(=O)Nc1csc(-c2ccc(Cl)c(Cl)c2)c1  solubility kinetic at 1 h         =               10
18  O=C(NC1=NN(c2ccc(Cl)c(Cl)c2)CC1)c1ccncn1  solubility kinetic at 1 h         =               13
19  O=C(NC1=NN(c2ccc(Cl)c(Cl)c2)CC1)c1cccnn1  solubility kinetic at 1 h         =               67
20  C[C@H]1CN(c2ccc(Cl)c(Cl)c2)N=C1NC(=O)c1cncnc1  solubility kinetic at 1 h         =                9
21              CC(=O)Nc1nc(-c2ccc(Br)s2)cs1  solubility kinetic at 1 h         =               16
22  O=C(Nc1nc(-c2ccc(Cl)c(Cl)c2)cs1)c1c(F)cccc1F  solubility kinetic at 1 h         =                5
23          CC(=O)Nc1nc(-c2ccc(Cl)c(C)c2)cs1  solubility kinetic at 1 h         =                1
24  CC(=O)NC1=NN(c2ccc(Cl)c(Cl)c2)[C@H](C)C1  solubility kinetic at 1 h         =              173
25      N#CCC(=O)Nc1nc(-c2ccc(Cl)c(Cl)c2)ns1  solubility kinetic at 1 h         =              370
26   N#CCC(=O)Nc1nc(-c2ccc(Cl)c(Cl)c2)c[nH]1  solubility kinetic at 1 h         =               14
27  O=C(NC1=NN(c2ccc(Cl)c(Cl)c2)CC1)c1ccnnc1  solubility kinetic at 1 h         =               23
28     O=C(Nc1nc(-c2ccc(Cl)c(Cl)c2)cs1)C1CC1  solubility kinetic at 1 h         =                3
29         CC(=O)NC1=NN(c2ccc(Cl)c(Cl)c2)CC1  solubility kinetic at 1 h         =               31
30      N#CCC(=O)NC1=NN(c2ccc(Cl)c(Cl)c2)CC1  solubility kinetic at 1 h         =              202
31          CC(=O)Nc1nc(-c2ccc(Cl)c(F)c2)cs1  solubility kinetic at 1 h         =                5
